experiment: Cytotoxicity against human MRC5 cells assessed as reduction in cell viability incubated for 72 hrs by MTT assay; assay type: toxicity, cell-based
Collected IC50 at 72 h values appear next to each entry.
Number in µM, nothing else.

C=CS(=O)(=O)NC1CCN(C(=O)CNc2cc(I)c(Cl)cc2OC)CC1
10.3

Let us move to another entry and its IC50 at 72 h.
Supply measured IC50 at 72 h of O=C(CCl)N1CCN(C(=O)Nc2ccc(Cl)c(-c3ccccc3F)c2)CC1 in your reply.
6.1

====

test system: NCI-H23; test: Antiproliferative activity against human NCI-H23 cells harboring KRAS G12C mutant assessed as reduction in cell viability incubated for 72 hrs by MTT assay; format: functional, cell-based; conditions: NCI-H23, 72 h
readout type: IC50 (µM)
Your answer should be a plain number; it is taken to be in µM.

Reference set, count: 2
C=CC(=O)N1CC[C@@H](NC(=O)Nc2ccc(Cl)c(C(F)(F)F)c2)C1
29.7
O=C(Nc1ccc(Cl)c(Cl)c1)NC1CCN(C(=O)CCl)CC1
4.8

Name the recorded IC50 of the item O=C(NC1CCN(C(=O)CCl)C1)c1cc(=O)c2cc(Cl)c(I)cc2[nH]1 (stereo unspecified) in your answer.
3.8

Note down IC50 recorded for C=CS(=O)(=O)N1CCC(NC(=O)Nc2ccc(Cl)cc2)CC1
18.9

====

test system: A549; experiment: Antiproliferative activity against human A549 cells harboring KRAS G12S mutant assessed as reduction in cell viability incubated for 72 hrs by MTT assay; assay type: functional, cell-based; conditions: A549, 72 h
Here, each record is paired with measured IC50 data.

Known results for compounds:
C=CC(=O)N1CC[C@H](NC(=O)Nc2ccc(Cl)c(C(F)(F)F)c2)C1
> 100 µM
C=CC(=O)N1CC[C@@H](NC(=O)Nc2ccc(Cl)c(C(F)(F)F)c2)C1
> 100 µM
O=C(Nc1ccc(Cl)c(C(F)(F)F)c1)N[C@H]1CCN(C(=O)CCl)C1
11.3 µM
O=C(CCl)NC1CCN(C(=O)c2cc(=O)c3cc(Cl)c(I)cc3[nH]2)CC1
9.8 µM
O=C(CCl)N1CCN(C(=O)Nc2ccc(Cl)c(C(F)(F)F)c2)CC1
1.5 µM

Find the measured IC50 of C=CC(=O)N1CCC(NC(=O)Nc2ccc(Cl)c(Cl)c2)CC1 and report it.
> 100 µM

Return value of IC50 for input C=CS(=O)(=O)N1CCC(NC(=O)Nc2ccc(Cl)c(C(F)(F)F)c2)CC1 , no commentary.
3.3 µM

Read off the recorded IC50 for C=CC(=O)NC1CCN(C(=O)c2cc(=O)c3cc(Cl)ccc3[nH]2)CC1
> 100 µM

Tell me its IC50 given C=CC(=O)N1CC[C@@H](NC(=O)Nc2ccc(Cl)cc2)C1 as the entry.
> 100 µM

====

Quick reference: IC50 of the listed items.
test system: NCI-H23; assay: Antiproliferative activity against human NCI-H23 cells harboring KRAS G12C mutant assessed as reduction in cell viability incubated for 72 hrs by MTT assay; assay type: functional, cell-based; settings: NCI-H23, 72 h
Field: numeric (µM). Do not append units.

Solved entries:
O=C(Nc1ccc(Cl)c(C(F)(F)F)c1)NC1CCN(C(=O)CCl)CC1
2.3
C=CC(=O)NC1CCN(C(=O)c2cc(=O)c3cc(Cl)c(I)cc3[nH]2)CC1
35.5

Please turn your attention to the following entry.
Give recorded IC50. O=C(CCl)NC1CCN(C(=O)c2cc(=O)c3cc(Cl)c(I)cc3[nH]2)CC1
2.7

====

test system: A549; assay: Antiproliferative activity against human A549 cells harboring KRAS G12S mutant assessed as reduction in cell viability incubated for 72 hrs by MTT assay; format: functional, cell-based; details: A549, 72 h
readout type: IC50 (µM)
API: value field is a number in µM; no unit string.

C=CC(=O)NC1CCN(C(=O)c2cc(=O)c3cc(Cl)c(I)cc3[nH]2)CC1
22.8
O=C(Nc1ccc(Cl)c(C(F)(F)F)c1)NC1CCN(C(=O)CCl)CC1
8
O=C(Nc1ccc(Cl)cc1)NC1CCN(C(=O)CCl)CC1
17.5
C=CC(=O)N1CC[C@H](NC(=O)c2cc(=O)c3cc(Cl)c(I)cc3[nH]2)C1
24.4

For the molecule C=CC(=O)NC1CCN(C(=O)c2cc(=O)c3cc(Cl)c(C(F)(F)F)cc3[nH]2)CC1 , give its reported IC50.
46.2

Identify measured IC50 corresponding to C=CS(=O)(=O)NC1CCN(C(=O)c2cc(=O)c3cc(Cl)c(I)cc3[nH]2)CC1
11.9

Supply reported IC50 belonging to this molecule: C=CS(=O)(=O)NC1CCN(C(=O)CNc2cc(I)c(Cl)cc2OC)CC1
5.2

// fetch IC50 given entry O=C(NC1CCN(C(=O)CCl)C1)c1cc(=O)c2cc(Cl)c(I)cc2[nH]1 (stereo unspecified)
10.2

Using the record for C=CC(=O)N1CC[C@@H](NC(=O)c2cc(=O)c3cc(Cl)c(I)cc3[nH]2)C1 , state its measured IC50.
20.3

Please report the measured IC50 for O=C(Nc1ccc(Cl)c(Cl)c1)NC1CCN(C(=O)CCl)CC1
7.4

Write down IC50 measured for item COc1cccc(F)c1-c1cc(NC(=O)NC2CCN(C(=O)CCl)CC2)ccc1Cl
66.9

Answer with the recorded IC50 for the molecule listed here: O=C(CCl)N1CCN(C(=O)Nc2ccc(Cl)c(-c3ccccc3F)c2)CC1
9.3

Specify measured IC50 for O=C(Nc1ccc(Cl)c(C(F)(F)F)c1)N[C@@H]1CCN(C(=O)CCl)C1 .
26.1

====

assay: Selectivity index, ratio of IC50 for human NCI-H2228 cells harboring wild type KRAS to IC50 for human NCI-H358 cells harboring KRAS G12C mutant; assay type: functional
Entries and their Ratio IC50 values follow.
Write no unit; give the number alone.

Some compounds with known Ratio IC50 results, for comparison:
O=C(CCl)N1CCN(C(=O)Nc2ccc(Cl)c(-c3ccccc3F)c2)CC1
7
O=C(Nc1ccc(Cl)cc1)NC1CCN(C(=O)CCl)CC1
3
C=CS(=O)(=O)NC1CCN(C(=O)c2cc(=O)c3cc(Cl)c(I)cc3[nH]2)CC1
2
O=C(Nc1ccc(Cl)c(C(F)(F)F)c1)N[C@H]1CCN(C(=O)CCl)C1
3

Then this compound:
Complete the entry with Ratio IC50 for O=C(CCl)NC1CCN(C(=O)c2cc(=O)c3cc(Cl)c(I)cc3[nH]2)CC1
2
